// provenance: PubChem BioAssay AID1259343

The compounds listed here are annotated with their inhibition.
Test: Mycobacterium tuberculosis growth inhibition, primary screen (AID 1259343)
Conditions: at 10 µM, active compounds read high
Hit rate of the full screen: of about 6,200 compounds, about 2,900 (47%) were called active. The set was probably picked from earlier hits. Some of the results follow.
Answer in %, number only, no unit symbol.

Use the examples below as a reference point.
# compound, experimental-result
records = [
    ("CCN(Cc1cccc(C(N)=O)c1)c1ccccc1C", 27.3),
    ("O=C(NNc1ccc(Cl)c(Cl)c1)c1ccc(NC(=O)C2CC2)cc1", 96.5),
    ("CC(C)N(C(=O)CCl)c1ccccc1", 100),
]

Value of inhibition reported for the compound O=C(CN1CCCC1c1ccsc1)Nc1ccccc1Br (stereo unspecified) is 41.9

Value of inhibition reported for the compound O=C(Nc1ccc(CNS(=O)(=O)c2c(Cl)cccc2Cl)cc1)C1CC1 is 27.6

Value of inhibition reported for the compound O=C(Nc1ccc(Cl)c(Cl)c1)N(Cc1ccc(O)cc1)C1CC1 is 27.8
